Data origin: the supplement of paper PMC10567573

B1: PCMTD2 (parent)
chain: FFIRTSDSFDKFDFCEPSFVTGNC

variants of: B1; experiment: protein stability index of a GFP-peptide fusion (GPS, HEK-293T) (PSI 1-6); higher = more stable; details: c terminus: a fixed tail appended;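 also: lentivirally expressed fusions sorted by FACS into six bins by GFP to DsRed ratio, PSI derived from sequencing read proportions per bin multiplied by bin number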
# protein stability index per entry

These recorded examples may help you get a feel for the data.
{"residue change": "D10P", "protein stability index": 2.94}
{"residue change": "S8L", "protein stability index": 3.06}

Continue with the variant presented below.
Qu. What value of measured protein stability index is listed for D10K ?
Ans. 3.06
